- assay.text: in vitro
- condition: human, hela cells, % viability
Readings of viability at 28.5 h, 10 µM for the listed molecules
readout.name: viability at 28.5 h, 10 µM (%)

>>> experimental_result("CCC(=O)N1CCC(c2nc(C3CCCC3)no2)C1 (stereo not shown)")
95.3
>>> experimental_result("Cc1cc2nc(NS(C)(=O)=O)n(S(C)(=O)=O)c2cc1C")
106
>>> experimental_result("Cc1cc(Br)ccc1OCC(=O)O/N=C(\\N)Cc1ccc([N+](=O)[O-])cc1")
99.8
>>> experimental_result("FC(F)(F)c1ccnc(OCCNc2ccccc2)c1")
90.5
>>> experimental_result("COc1cccc2sc(NC(=O)c3ccc4c(c3)OCCO4)nc12")
99.1
>>> experimental_result("COc1cc(C(=O)N2CCC3(CC2)CC(=O)c2cc(-c4cccc(C)c4)ccc2O3)cc(OC)c1C")
87.7
>>> experimental_result("Nc1ncnc(NCCC(c2ccccc2)c2ccccc2)c1[N+](=O)[O-]")
90.5
>>> experimental_result("CCCN(Cc1cccs1)C1Cc2cc(OC)c(OC)cc2C1 [CBK017567C]")
96.8
>>> experimental_result("O=C(O)c1cc(S(=O)(=O)NCc2ccccc2)ccc1Br")
96.9
>>> experimental_result("C[C@H](Cn1nc2c(cc1=O)CCCCC2)NC(=O)C1CCCC1")
83.2
